Provide the recorded cytotoxicity for the entries that follow.
ASSAY_NAME: cytotoxicity in HPDE-C7 cells, cell-based, fluorescence, HTS (AID 430);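 note: cells exposed to compound for 48 hours before viability readout; 0% = vehicle and 100% = reference cytotoxic drug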
CONDITION_SET: HPDE-C7 pancreatic duct cells viability, at 10 µM, stronger effect = higher value
Out of some 63,000 compounds screened, about 1,100 (1.7%) were called active. This is one part of a sample in which actives are shown more often than they occur. Entries with a potency or affinity are not part of this list.
Give bare numbers, in %.

Previously resolved entries follow.
[[record]]
molecule = "CCCCn1c(NC(=O)c2ccccc2Cl)c(C#N)c2nc3ccccc3nc21"
measured_result = 61.7

[[record]]
molecule = "COC(=O)c1[nH]c2cc(OC)c(OC)cc2c1NC(=O)c1cccc(OC)c1"
measured_result = -10.5

[[record]]
molecule = "CCC(=O)Nc1c(C#N)c2nc3ccccc3nc2n1-c1ccccc1C"
measured_result = 2.9

[[record]]
molecule = "CCc1nnc(NC(=O)CSc2nc3c(cc2C#N)CCC3)s1"
measured_result = 30.8

[[record]]
molecule = "N#Cc1c(NC(=O)c2ccc(Br)o2)n(-c2ccccc2)c2nc3ccccc3nc12"
measured_result = 54.7


I would be grateful if you could provide cytotoxicity for each of the following entries.
1. CCCCN1C(=O)C(O)(CC(=O)c2c(C)n[nH]c2C)c2cc(Br)ccc21 (stereo unspecified)
2. O=S(=O)(Nc1cccnc1)c1ccc2c(c1)OCCO2
3. CCOc1ccc(N(CC(=O)N2CCc3ccccc32)S(=O)(=O)c2c(C)noc2C)cc1
4. Cc1ccc(C)c(NC(=O)CCn2nc(C)cc2C)c1

Given back:
7.7
-9.7
-26.9
-17.9

I would be grateful if you could provide cytotoxicity for each of the following entries.
1. CCS(=O)(=O)N1Cc2ccccc2CC1C(=O)Nc1nc2ccccc2[nH]1 (stereo unspecified)
2. CCCCCn1c(N)c(C#N)c2nc3ccccc3nc21
3. COC(=O)CCSCC(=O)Nc1cc(C)on1

Given back:
1. 6.5
2. 3.3
3. -18

I would be grateful if you could provide cytotoxicity for each of the following entries.
1. O=C(NC1CCS(=O)(=O)C1)c1cn(-c2ccccc2)nc1-c1ccccc1 (stereo unspecified)
2. CC(C)(C)c1ccccc1OCC(=O)NCCC(=O)O
3. N#CC1=C(SCC(=O)NC2CC2)NC(=O)C(C#N)C12CCCCC2 (stereo unspecified)
4. CN(C)/C=C1\C(=O)c2ccc(N(C)C)nc2CC1c1ccccc1 (stereo unspecified)
5. C=CCn1c(NC(=O)c2ccccc2)c(C#N)c2nc3ccccc3nc21
6. CCn1c(C2CC(=O)N(Cc3ccccc3)C2)nc2ccccc21 (stereo unspecified)

Given back:
1: 59.8; 2: -12.2; 3: -13.2; 4: 60.7; 5: 45.1; 6: -14.7

I would be grateful if you could provide cytotoxicity for each of the following entries.
1. N#CC1=C(N)NC(SCC(=O)Nc2ccccc2)=C(C#N)C12CCCC2
2. NC(=O)CSc1nc2ccccc2n1-c1ccccc1
3. O=C(NCc1ccccn1)c1coc(=O)c(Br)c1

Given back:
1. 1.6
2. -1.9
3. 52.2

----------
Provide the recorded cytotoxicity for the entries that follow.
ASSAY_NAME: cytotoxicity in HPDE-C7 cells, cell-based, fluorescence, HTS (AID 430)
CONDITION_SET: HPDE-C7 pancreatic duct cells viability, at 10 µM, stronger effect = higher value
Hit rate of the full screen: of about 63,000 compounds, about 1,100 (1.7%) were called active. This excerpt belongs to a sample that is enriched for actives. Results with a measured potency or affinity are listed apart.
Give bare numbers, in %.

[[record]]
compound = "CCC(C)n1ncn(-c2ccc(N3CCN(c4ccc(OCC5COC(Cn6cncn6)(c6ccc(Cl)cc6Cl)O5)cc4)CC3)cc2)c1=O (stereo not given)"
measured_result = 65.7

[[record]]
compound = "CCN(CC)CCCNC(=O)C1CCN(C(=O)c2cc3sccc3n2Cc2ccc(F)cc2)CC1"
measured_result = 20.7

[[record]]
compound = "O=C(CC1COc2ccccc2O1)NC1CCCCC1 (stereo not given)"
measured_result = -3.9

[[record]]
compound = "NC(=O)C(F)(F)C12OC3C4C5CC(C6C5C3C61)C42 (stereo not given)"
measured_result = -3.7


I would be grateful if you could provide cytotoxicity for each of the following entries.
1. CC(C)C(c1nnnn1CC1CCCO1)N1CCN(Cc2ccc3c(c2)OCO3)CC1 (stereo not given)
2. Cc1ccc(-c2nnn(CC(=O)N(Cc3cccs3)C(C(=O)NC(C)(C)C)c3ccco3)n2)o1 (stereo not given)
3. Cc1ccc(-c2nnn(CC(=O)N(c3ccccc3)C(C(=O)NC3CCCC3)c3ccco3)n2)o1 (stereo not given)
4. CCOC(=O)c1csc(Nc2nc3ccc(F)cc3s2)n1
5. Cc1ccc(-c2csc3ncnc(-n4nc(C)cc4N)c23)cc1

Given back:
-3.2
-3.6
-1
40.1
0.5

Asked: Fill in the blank: the reported cytotoxicity of O=C1Nc2ccccc2C12OCC(COc1ccc(Cl)cc1)O2 (stereo not given) is ____.
Given back: 30.3

----------
Provide the recorded cytotoxicity for the entries that follow.
ASSAY_NAME: cytotoxicity in HPDE-C7 cells, cell-based, fluorescence, HTS (AID 430);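 note: cells exposed to compound for 48 hours before viability readout; 0% = vehicle and 100% = reference cytotoxic drug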
CONDITION_SET: HPDE-C7 pancreatic duct cells viability, at 10 µM, stronger effect = higher value
The whole screen tested about 63,000 compounds, of which about 1,100 (1.7%) were called active. Many of the other results were omitted from the sample, so actives are more common in it than they were. Results with a measured potency or affinity are listed apart.
Answers are plain numbers, in %.

Previously resolved entries follow.
[[record]]
compound = "O=C(c1cc(-c2cccs2)on1)N1CCc2ccccc2C1"
measured_result = 2.3

[[record]]
compound = "COc1cc(Cn2c(-c3nonc3N)nc3ccccc32)ccc1C"
measured_result = 30.4

[[record]]
compound = "CCOCCCNC(=O)Cn1ncc2c(=O)oc3ccccc3c21"
measured_result = -3.8

[[record]]
compound = "O=c1c2c3nc4ccccc4nc3n(/N=C/c3cccs3)c2ncn1-c1ccccc1"
measured_result = -19.9

[[record]]
compound = "CCn1c(=O)cc(SCC(=O)Nc2ccc3c(c2)OCO3)c2ccccc21"
measured_result = 0.7


I would be grateful if you could provide cytotoxicity for each of the following entries.
1. CCCS(=O)(=O)N1CCC(C(=O)NCc2ccccc2Cl)CC1
2. Cc1nn(Cc2ccc(Cl)c(Cl)c2)c(C)c1NC(=O)c1cc(-c2ccc3c(c2)OCO3)on1
3. Cc1cccc(C)c1NC1=NC(C)(C)N=C(N)N1
4. COC(=O)c1ccccc1NC(=O)Cn1c(-c2nonc2N)nc2ccccc21
5. CC(C)Oc1ccc(NC(=O)Oc2ccccc2)cc1

Given back:
[-9.6, 54.7, 10.8, 47, 4.8]

----------
ASSAY_NAME: cytotoxicity in HPDE-C7 cells, cell-based, fluorescence, HTS (AID 430);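 note: cells exposed to compound for 48 hours before viability readout; 0% = vehicle and 100% = reference cytotoxic drug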
CONDITION_SET: HPDE-C7 pancreatic duct cells viability, at 10 µM, stronger effect = higher value
The whole screen tested about 63,000 compounds, of which about 1,100 (1.7%) were called active. The sample as a whole holds a higher share of actives than the screen did. Results with a measured potency or affinity are listed apart.
TEST_READOUT: cytotoxicity (%)
Give bare numbers, in %.

I would be grateful if you could provide cytotoxicity for each of the following entries.
1. COC(=O)C(C)NC(=O)C1CCCN1S(=O)(=O)c1cc(C)c(Cl)cc1C (stereo unspecified)
2. O=C(Nc1scc(-c2ccc(F)cc2)c1C(=O)O)c1ccco1
3. COc1cc(C)c(Br)cc1S(=O)(=O)N1CCOCC1
4. COc1cc2c(=O)n(-c3ccc(C)cc3)c(=O)n(CC(=O)c3ccc4c(c3)OCO4)c2cc1OC
5. O=C(Nc1ccc2c(c1)oc1ccccc12)c1ccc(Br)o1

Given back:
7.8
-6.9
-9.6
6.8
3.1

----------
ASSAY_NAME: cytotoxicity in HPDE-C7 cells, cell-based, fluorescence, HTS (AID 430);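 note: cells exposed to compound for 48 hours before viability readout; 0% = vehicle and 100% = reference cytotoxic drug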
CONDITION_SET: HPDE-C7 pancreatic duct cells viability, at 10 µM
Hit rate of the full screen: of about 63,000 compounds, about 1,100 (1.7%) were called active. No stated cut-off is given here; in the data, active means cytotoxicity above about 50%; inactive means the rest. Only a selection was taken, and actives are over-represented in it overall. Measured potencies and affinities stand elsewhere.
Choose the fitting class; nothing outside active, inactive is accepted.

Answered cases to consult:
[[record]]
compound = "Brc1cnn(-c2nc(N3CCOCC3)nc(N3CCOCC3)n2)c1"
cat = "inactive"

[[record]]
compound = "Cn1c(=O)[nH]c(=O)c2c1ncn2CCN1CCCCC1"
cat = "inactive"

[[record]]
compound = "CN(C)/C=c1\\sc2c(C#N)cc(C(=O)c3ccc(Br)cc3)n2c1=O"
cat = "inactive"

[[record]]
compound = "COc1ccccc1-n1c(=O)[nH]c2c(C(N)=O)nc(-c3cccnc3)nc21"
cat = "inactive"

[[record]]
compound = "COc1ccc(-c2cc3ccccc3n2CC(O)CN2CCOCC2)cc1 (stereo unspecified)"
cat = "inactive"

[[record]]
compound = "Nc1nc(C(=O)N2CCOCC2)nn1S(=O)(=O)c1ccc(Cl)cc1"
cat = "inactive"

[[record]]
compound = "O=C(Nc1ccc2oc(-c3ccccc3)nc2c1)c1ccc2c(c1)OCCO2"
cat = "inactive"

[[record]]
compound = "Cc1ccc(NC(=O)CN2C(=O)NC(Cc3ccccc3)C2=O)cc1 (stereo unspecified)"
cat = "inactive"


Asked: For this compound, state the assay outcome: `COCc1cc(CN2CCCC2)c(O)c2ncccc12`
Given back: inactive
